Target chain: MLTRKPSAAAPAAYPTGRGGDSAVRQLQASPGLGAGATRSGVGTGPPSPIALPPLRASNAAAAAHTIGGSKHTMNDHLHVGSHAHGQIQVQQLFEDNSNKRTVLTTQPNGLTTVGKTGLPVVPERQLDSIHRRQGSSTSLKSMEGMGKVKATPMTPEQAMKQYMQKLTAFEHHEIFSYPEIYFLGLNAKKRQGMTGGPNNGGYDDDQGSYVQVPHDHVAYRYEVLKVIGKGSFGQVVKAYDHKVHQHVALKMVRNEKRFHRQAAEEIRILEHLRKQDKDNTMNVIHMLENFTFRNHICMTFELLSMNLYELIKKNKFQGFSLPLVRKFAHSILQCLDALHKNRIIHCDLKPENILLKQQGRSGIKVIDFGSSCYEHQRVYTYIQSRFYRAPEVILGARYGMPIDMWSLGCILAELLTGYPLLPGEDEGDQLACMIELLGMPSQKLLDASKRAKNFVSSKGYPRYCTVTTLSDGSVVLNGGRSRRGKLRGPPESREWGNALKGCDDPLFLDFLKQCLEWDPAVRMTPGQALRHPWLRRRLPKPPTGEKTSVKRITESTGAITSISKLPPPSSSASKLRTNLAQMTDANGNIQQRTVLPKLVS
# if measured IC50 < 600 nM: TRUE  # else: FALSE

Some solved cases for reference:
[[record]]
molecule = "CN1CCN(c2ncc(NC3=N/C(=C\\c4ccc5ncsc5c4)C(=O)N3)cn2)CC1"
label_value = "TRUE"

[[record]]
molecule = "O=C1NC(NC2CCCCCC2)=N/C1=C\\c1ccc2ncoc2c1"
label_value = "TRUE"

[[record]]
molecule = "CC(NC1=N/C(=C\\c2ccc3ncsc3c2)C(=O)N1)C12CC3CC(CC(C3)C1)C2 (racemic)"
label_value = "FALSE"

[[record]]
molecule = "CC(C)(C)OC[C@H](NC1=N/C(=C\\c2ccc3ncsc3c2)C(=O)N1)c1ccccc1"
label_value = "FALSE"

[[record]]
molecule = "Cc1ccc(NC2=N/C(=C\\c3ccc4ncsc4c3)C(=O)N2)cc1F"
label_value = "FALSE"

[[record]]
molecule = "COC[C@H](NC1=N/C(=C\\c2ccc3ncsc3c2)C(=O)N1)c1ccccc1"
label_value = "TRUE"

[[record]]
molecule = "CO[C@H]1CCCC[C@@H]1NC1=N/C(=C\\c2ccc3ncsc3c2)C(=O)N1"
label_value = "FALSE"

[[record]]
molecule = "Cn1ccc(NC2=N/C(=C\\c3ccc4ncsc4c3)C(=O)N2)n1"
label_value = "FALSE"


Now turn to the next molecule.
Dear colleague, could you confirm whether IC50 of CN1CCC2(CC1)CC(NC1=N/C(=C\c3ccc4ncsc4c3)C(=O)N1)C2 falls below 600 nM? Thanks. FALSE

----------
measured.target: UniProtKB P49761
Sequence (P49761 whole entry): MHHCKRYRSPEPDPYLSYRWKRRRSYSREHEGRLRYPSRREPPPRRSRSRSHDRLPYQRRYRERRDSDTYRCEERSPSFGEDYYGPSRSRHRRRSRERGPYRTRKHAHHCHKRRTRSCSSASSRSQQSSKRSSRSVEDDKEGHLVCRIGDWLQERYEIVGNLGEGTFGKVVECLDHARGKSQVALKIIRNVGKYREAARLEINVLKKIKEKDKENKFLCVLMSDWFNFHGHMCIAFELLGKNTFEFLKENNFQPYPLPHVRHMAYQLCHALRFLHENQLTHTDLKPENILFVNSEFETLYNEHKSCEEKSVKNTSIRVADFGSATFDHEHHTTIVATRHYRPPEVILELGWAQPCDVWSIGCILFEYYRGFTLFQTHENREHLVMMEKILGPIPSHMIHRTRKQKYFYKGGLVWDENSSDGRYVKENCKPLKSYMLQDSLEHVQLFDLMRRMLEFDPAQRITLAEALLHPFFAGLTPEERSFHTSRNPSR
Assay type: cell-based, Sf9
value.type: pIC50
Numbers only, as −log10 of the molar value.

Reference set, count: 5
[[record]]
compound = "O=C1NC(NC2CCCCC2)=N/C1=C\\c1ccc2ncsc2c1"
value_type = "pIC50"
readout_value = 6.10

[[record]]
compound = "O=C1NC(Nc2ccc(F)cc2)=N/C1=C\\c1ccc2ncsc2c1"
value_type = "pIC50"
readout_value = 5.74

[[record]]
compound = "O=C1NC(N[C@@H](CO)CC2CCCCC2)=N/C1=C\\c1ccc2ncsc2c1"
value_type = "pIC50"
readout_value = 5.36

[[record]]
compound = "CC(=O)NC12CC3CC(C1)CC(NC1=N/C(=C\\c4ccc5ncsc5c4)C(=O)N1)(C3)C2"
value_type = "pIC50"
readout_value = 6.21

[[record]]
compound = "O=C1NC(NC2CCCCC2)=N/C1=C\\c1ccc2c(c1)OCO2"
value_type = "pIC50"
readout_value = 5.37


Record pIC50 per entry; entries follow.
1. O=C1NC(Nc2ccccc2)=N/C1=C\c1ccc2c(c1)OCO2
2. O=C1NC(NC2CCCCOC2)=N/C1=C\c1ccc2ncsc2c1 (racemic)
3. O=C1NC(NC2CCCSC2)=N/C1=C\c1ccc2ncsc2c1 (racemic)

1: 5.92; 2: 6.37; 3: 6.97

----------
These compounds were tested on Dual specificity protein kinase CLK1 (Homo sapiens, UniProt P49759); IC50 is the recorded read-out.
Sequence (P49759 whole entry): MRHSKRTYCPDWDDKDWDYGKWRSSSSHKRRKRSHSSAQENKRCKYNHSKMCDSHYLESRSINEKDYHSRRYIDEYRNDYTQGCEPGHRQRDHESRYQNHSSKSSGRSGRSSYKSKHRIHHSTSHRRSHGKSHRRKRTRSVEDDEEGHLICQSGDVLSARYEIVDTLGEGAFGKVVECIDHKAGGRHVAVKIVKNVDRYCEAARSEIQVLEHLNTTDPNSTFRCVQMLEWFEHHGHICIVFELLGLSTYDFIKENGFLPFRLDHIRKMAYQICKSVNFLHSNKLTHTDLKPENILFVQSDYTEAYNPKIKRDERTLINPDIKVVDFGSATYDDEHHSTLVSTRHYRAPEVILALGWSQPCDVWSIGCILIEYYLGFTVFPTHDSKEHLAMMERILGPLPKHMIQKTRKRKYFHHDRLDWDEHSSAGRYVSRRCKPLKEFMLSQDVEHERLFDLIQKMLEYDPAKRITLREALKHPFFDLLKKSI

Consider the following illustrative entries.
[[record]]
entry_smiles = "Cn1cnc2cc(/C=C3\\N=C(NC45CC6CC(CC(C6)C4)C5)NC3=O)ccc21"
readout_value = "> 10 µM"

[[record]]
entry_smiles = "Cn1cc2cc(/C=C3\\N=C(NC45CC6CC(CC(C6)C4)C5)NC3=O)ccc2n1"
readout_value = "0.004 µM"

[[record]]
entry_smiles = "Cn1ccc2cc(/C=C3\\N=C(NC4CCCCC4)NC3=O)ccc21"
readout_value = "> 10 µM"


Can you share its IC50? I mean this compound: Cn1cnc2cc(/C=C3\N=C(NC4CCCCC4)NC3=O)ccc21 > 10 µM

----------
Target chain: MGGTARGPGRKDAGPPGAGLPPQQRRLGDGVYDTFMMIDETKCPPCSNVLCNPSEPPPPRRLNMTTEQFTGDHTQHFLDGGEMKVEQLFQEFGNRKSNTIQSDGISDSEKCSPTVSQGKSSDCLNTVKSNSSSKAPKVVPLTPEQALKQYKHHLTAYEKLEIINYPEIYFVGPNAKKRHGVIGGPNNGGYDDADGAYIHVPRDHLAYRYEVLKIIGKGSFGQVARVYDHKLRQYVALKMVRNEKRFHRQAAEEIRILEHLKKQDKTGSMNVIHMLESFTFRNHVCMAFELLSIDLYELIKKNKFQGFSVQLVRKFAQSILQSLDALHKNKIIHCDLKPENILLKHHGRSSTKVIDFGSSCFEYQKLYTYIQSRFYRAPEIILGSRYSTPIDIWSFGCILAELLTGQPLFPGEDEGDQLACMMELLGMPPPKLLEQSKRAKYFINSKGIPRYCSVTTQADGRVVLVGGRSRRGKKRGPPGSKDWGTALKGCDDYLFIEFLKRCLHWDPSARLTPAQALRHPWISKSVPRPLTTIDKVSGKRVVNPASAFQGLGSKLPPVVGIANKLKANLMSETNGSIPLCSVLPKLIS
value.type: pIC50
One number for each entry, as −log10 of the molar value.

// known answers, use as guide
[[record]]
compound = "O=C1NC(NC2CC23CCCCC3)=N/C1=C\\c1ccc2ncsc2c1 (stereo not given)"
readout_value = 6.46

[[record]]
compound = "O=C1NC(Nc2cccc(OC(F)F)c2)=N/C1=C\\c1ccc2ncsc2c1"
readout_value = 6.15

[[record]]
compound = "O=C1NC(NC(CO)C2CCCCC2)=N/C1=C\\c1ccc2ncsc2c1 (racemic)"
readout_value = 6.16


Give pIC50 for all compounds that follow.
1. O=C1NC(Nc2cccc(C(F)(F)F)c2)=N/C1=C\c1ccc2ncsc2c1
2. Cn1cnc2ccc(/C=C3\N=C(NC4CCCCCC4)NC3=O)cc21
3. CN1CC[C@](C)(NC2=N/C(=C\c3ccc4ncsc4c3)C(=O)N2)C1=O (stereo in doubt)
4. Cn1ncc2cccc(NC3=N/C(=C\c4ccc5ncsc5c4)C(=O)N3)c21
5. O=C1NC(NC2CCCCCC2)=N/C1=C\c1ccc2c(c1)OCO2

1. 5.24
2. 6.12
3. 5.83
4. 5.39
5. 5.50

Answer for every listed entry: what is its pIC50? The entries follow.
1. CN1CCN(c2ccc(NC3=N/C(=C\c4ccc5c(c4)OCO5)C(=O)N3)cc2)CC1
2. Cc1nc2ccc(/C=C3\N=C(NC45CC6CC(CC(C6)C4)C5)NC3=O)cc2s1
3. O=C1NC(NC2CCCC(F)(F)C2)=N/C1=C\c1ccc2ncsc2c1 (racemic)
4. COc1ccc(/C=C2\N=C(Nc3ccc(N4CCN(C)CC4)cc3)NC2=O)cc1O
5. CC(C)C[C@H](CF)NC1=N/C(=C\c2ccc3ncsc3c2)C(=O)N1
6. Cn1cnc2ccc(/C=C3\N=C(NC45CC6CC(CC(C6)C4)C5)NC3=O)cc21

1: 6.92; 2: 6.49; 3: 6.53; 4: 8.00; 5: 6.18; 6: 7.17

Each compound below has a reported value. Please supply its pIC50.
1. O=C1NC(NC(CF)c2ccccc2)=N/C1=C\c1ccc2ncsc2c1 (racemic)
2. O=C1NC(Nc2ncccn2)=N/C1=C\c1ccc2ncsc2c1

1. 6.32
2. 5.39

Items follow; give pIC50 for each.
1. COCC(Cc1ccccc1)NC1=N/C(=C\c2ccc3ncsc3c2)C(=O)N1 (stereo not given)
2. CO[C@H]1CCCC[C@H]1NC1=N/C(=C\c2ccc3ncsc3c2)C(=O)N1 (racemic)

[5.62, 5.98]

----------
measured.target: Glycogen synthase kinase-3 beta (Homo sapiens, UniProt P49841)
Sequence (P49841 whole entry): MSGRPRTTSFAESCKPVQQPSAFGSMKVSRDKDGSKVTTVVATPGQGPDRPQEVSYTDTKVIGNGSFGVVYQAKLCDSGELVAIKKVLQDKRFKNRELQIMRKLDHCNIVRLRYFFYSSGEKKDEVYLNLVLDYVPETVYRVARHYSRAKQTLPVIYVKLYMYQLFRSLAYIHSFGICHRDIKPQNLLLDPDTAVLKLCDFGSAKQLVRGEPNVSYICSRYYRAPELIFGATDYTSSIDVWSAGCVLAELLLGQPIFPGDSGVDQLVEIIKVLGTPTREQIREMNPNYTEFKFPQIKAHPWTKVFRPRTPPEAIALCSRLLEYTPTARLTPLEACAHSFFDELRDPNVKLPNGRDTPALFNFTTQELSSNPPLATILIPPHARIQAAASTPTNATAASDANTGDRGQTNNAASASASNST
Doc: threshold 3 µM (exclusive). Items with IC50 beneath it return yes (1); others return no (0).

Past entries and their recorded results:
[[record]]
molecule = "CC(C)(C)C(=O)OC12CC3CC(CC(NC4=N/C(=C\\c5ccc6ncsc6c5)C(=O)N4)(C3)C1)C2"
measured_target = "Glycogen synthase kinase-3 beta (Homo sapiens, UniProt P49841)"
label_value = "no (0)"

[[record]]
molecule = "COC(=O)[C@H](Cc1ccccc1)NC1=N/C(=C\\c2ccc3ncsc3c2)C(=O)N1"
measured_target = "Glycogen synthase kinase-3 beta (Homo sapiens, UniProt P49841)"
label_value = "no (0)"

[[record]]
molecule = "O=C1NC(NC2CC3CCC2C3)=N/C1=C\\c1ccc2ncsc2c1 (racemic)"
measured_target = "Glycogen synthase kinase-3 beta (Homo sapiens, UniProt P49841)"
label_value = "no (0)"

[[record]]
molecule = "Cn1ccc2cc(/C=C3\\N=C(NC4CCCCC4)NC3=O)ccc21"
measured_target = "Glycogen synthase kinase-3 beta (Homo sapiens, UniProt P49841)"
label_value = "no (0)"

[[record]]
molecule = "O=C1NC(NC2CCCCOC2)=N/C1=C\\c1ccc2ncsc2c1 (racemic)"
measured_target = "Glycogen synthase kinase-3 beta (Homo sapiens, UniProt P49841)"
label_value = "yes (1)"


Check if IC50 falls below 3 µM for O=C1NC(NC2CCCCC(F)(F)C2)=N/C1=C\c1ccc2ncsc2c1 (racemic) . yes (1)

Lab note: confirm whether the reported IC50 for this molecule is below 3 µM, equality not counting. molecule: O=C1NC(NCC2CCOCC2)=N/C1=C\c1ccc2ncsc2c1 no (0)

Here's an entry: COC(=O)[C@@H](NC1=N/C(=C\c2ccc3ncsc3c2)C(=O)N1)C(C)O (stereo not given in full) . Is its IC50 below 3 µM? no (0)

is_below(IC50, 3 µM) for CC(C)C[C@H](CF)NC1=N/C(=C\c2ccc3ncsc3c2)C(=O)N1 ? yes (1)

In the record for COC(CNC1=N/C(=C\c2ccc3ncsc3c2)C(=O)N1)c1ccccc1 (racemic) , is IC50 less than 3 µM? no (0)
